Target protein (sequence): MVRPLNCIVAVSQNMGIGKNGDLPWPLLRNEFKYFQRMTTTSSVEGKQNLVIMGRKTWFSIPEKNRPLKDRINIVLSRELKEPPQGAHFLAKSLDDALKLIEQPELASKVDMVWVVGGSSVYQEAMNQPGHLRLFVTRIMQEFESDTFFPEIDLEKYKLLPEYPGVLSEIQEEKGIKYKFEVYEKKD
Observed property: IC50 (µM)
A number alone suffices; assume µM.

Some compounds with known IC50 results, for comparison:
Problem: Which IC50 reading was recorded for the compound CC1=CC(C)(C)Nc2ccc(Cc3cnc(N)nc3N)cc21 ?
Solution: 240

Problem: Which IC50 reading was recorded for the compound COc1cc(Cc2cnc(N)nc2N)cc2c1N(CCOC(C)=O)C(C)(C)C=C2C ?
Solution: 164

Problem: Which IC50 reading was recorded for the compound CC1=CC(C)(C)Nc2c(Cl)cc(Cc3cnc(N)nc3N)cc21 ?
Solution: 76

Others:
Problem: Which IC50 reading was recorded for the compound COc1cc(Cc2cnc(N)nc2N)cc2c1N(C)C(C)(C)C=C2C ?
Solution: 340

Values compiled from ChEMBL document CHEMBL1124623.
